# tgt: BTK enzyme (recombinant full-length BTK, hBTK) (Homo sapiens)
# Construct: recombinant protein from baculovirus-transfected S 19 cells: full-length BTK, 6 HIS-tag cleaved; 6 HIS-tag (cleaved yes)
# Sequence (Q06187 whole entry): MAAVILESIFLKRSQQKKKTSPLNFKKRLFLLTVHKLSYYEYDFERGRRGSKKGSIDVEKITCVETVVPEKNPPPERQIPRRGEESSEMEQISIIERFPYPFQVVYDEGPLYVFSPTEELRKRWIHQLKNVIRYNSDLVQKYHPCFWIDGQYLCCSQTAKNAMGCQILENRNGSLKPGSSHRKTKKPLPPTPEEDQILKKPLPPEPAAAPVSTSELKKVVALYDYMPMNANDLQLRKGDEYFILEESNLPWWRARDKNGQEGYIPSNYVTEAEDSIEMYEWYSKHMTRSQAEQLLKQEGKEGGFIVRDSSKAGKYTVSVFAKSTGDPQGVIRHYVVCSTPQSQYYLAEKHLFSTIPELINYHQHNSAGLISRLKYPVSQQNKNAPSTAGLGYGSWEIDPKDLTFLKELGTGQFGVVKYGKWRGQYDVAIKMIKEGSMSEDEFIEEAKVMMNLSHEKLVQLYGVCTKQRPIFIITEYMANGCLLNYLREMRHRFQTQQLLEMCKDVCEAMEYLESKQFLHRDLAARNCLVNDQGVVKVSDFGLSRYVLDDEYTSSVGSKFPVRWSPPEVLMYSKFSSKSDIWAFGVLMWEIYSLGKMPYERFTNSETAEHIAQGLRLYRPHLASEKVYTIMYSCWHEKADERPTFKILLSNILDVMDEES
# assayInfo: Btk enzyme activity assay (LANCE TR-FRET)
# conditionDetails: 50 pM hBTK, 25 μM ATP, 60 minute compound and enzyme incubation, concentration range 1 μM to 0.017 nM, read-out: BTK binding IC50
assayReadout: IC50 (nM)

These recorded examples may help you get a feel for the data.
>>> df
                                  smilesstr                                       tgt  assayreadout  valueobserved
0  COc1cc(C(=O)Nc2cc(C(F)(F)F)ccn2)ccc1-c1nc([C@H]2CN(C(C)=O)[C@@H](C)CO2)n2c(Cl)cnc(N)c12  BTK enzyme (recombinant full-length BTK, hBTK) (Homo sapiens)          IC50           2.27
1  COc1cc(C(=O)Nc2cc(C(F)(F)F)ccn2)ccc1-c1nc([C@H]2CN(C=O)[C@@H](C)CO2)n2ccnc(N)c12  BTK enzyme (recombinant full-length BTK, hBTK) (Homo sapiens)          IC50           9.31

(A) CCOc1cc(C(=O)Nc2cc(C(F)(F)F)ccn2)ccc1-c1nc([C@H]2CN(C3CCOCC3)[C@@H](C)CO2)n2c(Cl)cnc(N)c12
(B) CCOc1cc(C(=O)Nc2cc(C(F)(F)F)ccn2)ccc1-c1nc([C@H]2CN(C(=O)CCOC)[C@@H](C)CO2)n2c(Cl)cnc(N)c12
(C) CCOc1cc(C(=O)Nc2cc(C(F)(F)F)ccn2)ccc1-c1nc([C@H]2CN(C(=O)[C@H](C)O)[C@@H](C)CO2)n2c(F)cnc(N)c12
(D) Nc1c(N[C@H]2C[C@H](c3nc(-c4ccc(C(=O)Nc5cc(C(F)(F)F)ccn5)cc4)c4c(N)nccn43)C2)c(=O)c1=O
(E) C[C@H]1CO[C@@H](c2nc(-c3ccc(C(=O)Nc4cc(C(F)(F)F)ccn4)cc3)c3c(N)nccn23)CN1C(=O)C1(C)CC1
-- ask Your job: order these 5 records by IC50, ascending. A ranking is expressed here by listing the labels in the requested order.
-- reply D, E, B, A, C
(D: 0.254 nM, E: 0.51 nM, B: 1.33 nM, A: 2.22 nM, C: 4.31 nM)
